- experimental_target: T1, human CD98hc endogenously expressed on HCMEC/D3 cells (human)
- T1 construct: human brain endothelial cell line
- T1 chain: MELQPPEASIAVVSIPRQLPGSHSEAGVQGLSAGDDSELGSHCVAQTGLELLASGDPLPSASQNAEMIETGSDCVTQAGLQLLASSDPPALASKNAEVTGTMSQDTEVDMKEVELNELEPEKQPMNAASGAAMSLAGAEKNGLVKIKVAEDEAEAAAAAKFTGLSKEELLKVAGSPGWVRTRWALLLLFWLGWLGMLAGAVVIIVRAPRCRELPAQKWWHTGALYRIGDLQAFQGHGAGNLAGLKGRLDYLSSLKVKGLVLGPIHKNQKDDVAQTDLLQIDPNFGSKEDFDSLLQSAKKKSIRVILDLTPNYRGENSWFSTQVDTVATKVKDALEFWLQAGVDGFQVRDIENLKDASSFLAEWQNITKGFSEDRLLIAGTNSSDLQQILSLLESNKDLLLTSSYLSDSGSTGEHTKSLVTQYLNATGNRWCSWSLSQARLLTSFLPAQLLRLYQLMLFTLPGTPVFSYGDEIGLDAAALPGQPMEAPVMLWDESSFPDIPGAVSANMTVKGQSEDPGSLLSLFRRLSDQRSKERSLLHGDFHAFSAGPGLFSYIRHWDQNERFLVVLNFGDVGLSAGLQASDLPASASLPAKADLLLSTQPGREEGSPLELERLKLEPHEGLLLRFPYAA
- assay_details: FACS, hybridoma supernatant
measurement_name: MFI ratio over secondary antibody
Reply with just the number.

>  <binder>
CD98HC.04.013 (antibody, V domains shown, hybridoma IgG) VH: EVQLVESGGDLGMPGGSLKLSCAASGFALSGYDMSWVRQTPDKRLEWVAYLSSGGGSTYYPYTVKGRFTISRDNAQNTLYLQMSSLKSEDTAIYYCARHSEVRPWFGYWGQGTLVTVSA VL: DIVMSQSPSSLAVSVGEKVTLTCKSSQSLLYSGNQKNYLAWYQQNPGQSPKLLIYWASTRESGVPDRFTGSGSGTDFTLTISSVKAEDLAVYYCQQYYTYPPTFGAGTKLGLK

>  <result_value>
124

$$$$

Field: next binder
MFI ratio over secondary antibody recorded for this binder, CD98HC.04.012 (antibody, V domains shown, hybridoma IgG) VH: QVQLQQSGADLVRPGDSVKISCKGSGYTFTDNTLHWVKQSHAKSLEWIGVISPYYGDASYNQKFKGKATMTVDKSSSTAYMELARLTSEDSAIYYCARVGGRLRLGYYFDHWGQGTTLTVSS VL: NIMMTQSPSSLAVSAGEKVTMNCKSSQSVLSSSNQKNYLAWYQQKPGQSPKLLIYWASTRESGVPARFTGSGSGTDFSLTITSVQAEDLAVYYCLQYLSSYTFGGGTKLEIK , is 155

Source of measurements: patent US20250270341A1
